- Tested on: HT29 colon
- assay.comment: NCI tumour cell line growth inhibition, 48 h
Each entry below carries its reported TGI.
endpoint.name: TGI

compound | target.desc | readout.value
C/C(=N\NC(=O)C[N+](C)(C)C)c1sc(-c2cccnc2)nc1C | HT29 colon | > 100 µM
c1ccc2c(c1)OCCc1cn[nH]c1-2 | HT29 colon | > 100 µM
CCc1cccc(C(C)C)c1NC(=O)CCl | HT29 colon | > 100 µM
COc1ccc(C(C)c2cc(OC)c(OC)c(OC)c2)cc1 (configuration not stated) | HT29 colon | > 50 µM
CC(=O)N1c2ccccc2C2=NN(C)C(=N)SC21 (configuration not stated) | HT29 colon | > 100 µM
O=C(CC(O)(C(F)(F)F)C(F)(F)Cl)CC(O)(C(F)(F)F)C(F)(F)Cl (configuration not stated) | HT29 colon | > 10 µM
Cc1cc(S(=O)(=O)Nc2nnc3c4ccccc4cnn23)c(S)cc1Cl | HT29 colon | > 100 µM
O=C(Nc1cccc(-n2cc(-c3ccncc3)c(-c3ccc(O)c(Cl)c3)n2)c1)c1ccc2c(c1)OCCO2 | HT29 colon | > 100 µM
Cc1cc(C)c2c(n1)S(=O)(=O)N(CCCN1CCN(c3cccc(Cl)c3)CC1)/C(=C(\O)c1ccccc1)C2=O | HT29 colon | > 100 µM
Clc1cc2ccccc2c2ccccc12 | HT29 colon | > 100 µM
[N-]=[N+]=NC1(c2ccccc2)C(=O)C(Cl)=C(c2ccccc2)N(c2ccccc2)C1=O (configuration not stated) | HT29 colon | > 100 µM
O=S(=O)(O)c1cc(S(=O)(=O)O)c2cc(N=Nc3c(O)ccc4ccccc34)ccc2c1 | HT29 colon | > 100 µM

* * *

Each entry below carries its reported TGI.
- System: KM12 colon
- assay.comment: NCI tumour cell line growth inhibition, 48 h
endpoint.name: TGI

compound | readout.value
COc1ccc(C(=O)O[C@H]2CC[C@@]3(C)[C@@H]4CC[C@H]5[C@]6(O)C[C@H](O)[C@@]7(O)[C@@H](CN8C[C@@H](C)CC[C@H]8[C@@]7(C)O)[C@]6(O)C[C@@]53OC24O)cc1OC | > 100 µM
CCOC(=O)C1C=C2O[C@@H]3OC4(CCCCC4)O[C@@H]3C2C2C(=O)CCC(=O)[C@@]12C(=O)OC (stereo partly specified) | > 100 µM
CC(C)=Cc1cc(C)c2c3c(c(O)c(O)c(C)c13)C(C)=CC2=O | 45.8 µM
N#CC1=C(N)NC(=S)NC1c1ccc(-c2ccc(-c3nc4ccccc4o3)cc2)s1 (stereo unspecified) | > 50 µM
COC(=O)[C@H](Cc1ccccc1)NC(=O)N(CCC#N)CCCCN(CCC#N)C(=O)N[C@@H](Cc1ccccc1)C(=O)OC | > 100 µM
Cc1c(O)c(OC2OC(CO)C(O)C(O)C2O)cc2c1CC[C@@H]1C2(C)C(=O)C[C@]2(C)[C@@H]([C@@](C)(O)C3CCC(C)(C)O3)[C@H](O)C[C@@]12C (stereo partly specified) | > 100 µM
COc1cc2oc(=O)cc(C)c2c(OC)c1O | > 100 µM
CCOC(=O)Nc1sc2c(c1C#N)CC(C)CC2 (stereo unspecified) | 36 µM
C/C(=N\NC(=O)C[N+](C)(C)C)c1sc(-c2cccnc2)nc1C | > 100 µM
CNC(=O)N(CCC#N)CCN(C(=O)N(C)C)c1ccccc1 | > 100 µM
COc1cc2cc(C(=O)N3CC(CCl)c4ccc([N+](C)(C)Cc5ccc([N+](=O)[O-])cc5)cc43)[nH]c2c(OC)c1OC (stereo unspecified) | 5.46 µM
N#CCCN(CCC#N)c1ccc(C(N=Nc2ccc(Cl)cc2)=Nc2ccccc2)cc1 | 31.3 µM
S=c1o[nH]c(-c2ccccc2)c1C=Nc1ccccc1 | > 100 µM
Cc1cccc(C)c1NC(=O)CCc1nnc2s/c(=C\c3ccc(N(C)C)cc3)c(=O)n12 | > 100 µM
NCCCOc1cc2ccccc2cc1C(=O)Nc1ccc(Cl)cc1OC(=O)c1cc2ccccc2cc1OCCCN | 0.394 µM
O=C1N2Cc3c4ccc5c3CN3C(=O)N6Cc7c(ccc(c7CN1C6(c1ccccc1)C23c1ccccc1)OCCOCCOc1cc(Br)c(Br)cc1OCCOCCO4)OCCOCCOc1cc(Br)c(Br)cc1OCCOCCO5 (stereo unspecified) | > 100 µM
O/N=C(/C(Cl)=C(Cl)Cl)C(Cl)Cl | 47.4 µM
CCC1C(C#N)=C(O)NC(O)=C1C#N | > 100 µM
Nc1nonc1-c1nc2ccccc2n1Cc1ccc(F)cc1 | > 100 µM
Cc1cc(C(=O)Nc2n[nH]c3ccccc23)n[nH]1 | > 100 µM
O=C1CNC(=O)/C(=C/c2c[nH]c3ccccc23)N1 | > 100 µM
CC(=O)Nc1ccc2c3c(cc(O)c2c1)N(C(=O)CCCCC(=O)N1CC(CCl)c2c1cc(O)c1cc(NC(C)=O)ccc21)CC3CCl (stereo unspecified) | 14 µM
O=[N+]([O-])c1ccc(-n2nc3ccc4c(no[n+]4[O-])c3[n+]2[O-])c([N+](=O)[O-])c1 | 13.1 µM
CCOc1ccccc1NC(=O)C(=O)C(/C(=N/N)C(=O)OC)c1nc2ccc([N+](=O)[O-])cc2[nH]c1=O (stereo unspecified) | > 100 µM
[N-]=[N+]=NC1(c2ccccc2)C(=O)C(Cl)=C(c2ccccc2)N(c2ccccc2)C1=O (stereo unspecified) | > 100 µM
CC(C)(C)OC(=O)NCCCCn1c2c(c3ccccc3c1=O)C(=O)c1ccccc1-2 | > 100 µM
